subject_of_test: hSGPL1 (Homo sapiens, UniProt O95470)
Sequence (O95470 1-568): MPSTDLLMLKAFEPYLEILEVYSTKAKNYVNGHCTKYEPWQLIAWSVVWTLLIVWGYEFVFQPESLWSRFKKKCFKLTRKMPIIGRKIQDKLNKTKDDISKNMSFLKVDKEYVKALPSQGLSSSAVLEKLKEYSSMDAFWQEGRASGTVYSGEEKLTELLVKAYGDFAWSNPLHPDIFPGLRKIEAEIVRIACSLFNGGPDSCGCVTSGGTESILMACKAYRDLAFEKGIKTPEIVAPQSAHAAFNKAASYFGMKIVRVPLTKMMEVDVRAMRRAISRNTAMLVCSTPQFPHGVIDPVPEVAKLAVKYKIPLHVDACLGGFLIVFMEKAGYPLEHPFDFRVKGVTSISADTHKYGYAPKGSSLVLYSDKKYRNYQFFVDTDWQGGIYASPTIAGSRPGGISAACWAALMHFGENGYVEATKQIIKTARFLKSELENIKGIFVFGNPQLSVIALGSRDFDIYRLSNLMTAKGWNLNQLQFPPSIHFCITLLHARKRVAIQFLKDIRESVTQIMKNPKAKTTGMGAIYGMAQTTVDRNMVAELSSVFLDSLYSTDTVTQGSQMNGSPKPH
measured_parameter: IC50 (µM)
The reply should be a number in µM, with the unit left off.

[in] Please report IC50 for the following compound: Clc1ccc(COC(Cn2ccnc2)c2ccc(Cl)cc2Cl)c(Cl)c1 (stereo not shown)
[out] 6.5
